B1: tRNA (parent)
chain: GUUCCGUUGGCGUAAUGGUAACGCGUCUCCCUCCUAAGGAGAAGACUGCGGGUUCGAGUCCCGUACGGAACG

Variants of: B1
assay_notes: yeast fitness relative to wild type (ratio to wild type); higher = fitter; tRNA-Arg(CCU), competitive growth, 37 C, YPD
Variants at the floor of the assay were thinned out.
attribute_measured: yeast fitness
The response must contain the number and no unit.

q: State, in one line, measured yeast fitness of C5G G25C
a: 1.06

q: State, in one line, measured yeast fitness of C27A A65U
a: 0.678

q: State, in one line, measured yeast fitness of U2C G10C
a: 0.724

q: State, in one line, measured yeast fitness of C5G C24G
a: 0.604

q: State, in one line, measured yeast fitness of A43G G58C
a: 0.855

q: State, in one line, measured yeast fitness of C22U C62G A69U
a: 0.586

q: State, in one line, measured yeast fitness of C4U C34G A37C
a: 0.539

q: State, in one line, measured yeast fitness of C22A A45C U54C
a: 0.522

q: State, in one line, measured yeast fitness of C5G A14U U16C G18C U32A G58A
a: 0.542
